assay-explanation: NCI Yeast Anticancer Drug Screen. Data for the bub3 strain (AID 167)
conditions: S. cerevisiae bub3 mutant strain, at 50.0 µM, hits give high values
Compounds without any hit were thinned out: in the full panel of roughly 79,000, 15% have a hit.
# growth inhibition per entry
All answers are understood in %, so give the number only.

Some entries whose results are on file:
Query: growth inhibition; subject: CCN(CC)CCNc1ccc(CO)c2sc3ccccc3c(=O)c12
-24.1

Query: growth inhibition; subject: CC(=O)Nc1ccc(NC(C)=O)c2c1C(=O)c1ccccc1C2=O
-19.3

Query: growth inhibition; subject: S=C1NCc2cncnc2N1
3.85

Others:
Query: growth inhibition; subject: Nc1ccc(N=Nc2ccc(S(=O)(=O)O)cc2)c2ccccc12
1.75

Query: growth inhibition; subject: CC1=C(/C=C/C(C)=C/C=C/C(C)=C/CO)C(C)(C)CCC1
-42.2

Query: growth inhibition; subject: CC1(C)N=C(N)N=C(N)N1c1ccc(Cl)cc1
3.85

Query: growth inhibition; subject: CCOc1ccc(Br)cc1/C=N\N=C\c1cc(Br)ccc1OCC
4.25

Query: growth inhibition; subject: C1CNC(C2=NCCN2)=N1
-31.8

Origin of values: PubChem BioAssay (NCI)
